activity at 50 µM values for the compounds below.
Test system: biosynthesis of PGE2
ASSAY_REMARKS: Production of PGE2 in LPS-stimulated mouse peritoneal cells
Format: cell-based
APPLIED_CONDITIONS: Mus musculus, 5 h, compound 50 μmol·l^−1, with LPS 10 ng/ml, 5 hours; LPS alone = 100%; low values = strong inhibition; read-out: PGE2 remaining activity in % of LPS response (mean ± SEM)
EXPERIMENTAL_ENDPOINT: activity at 50 µM

INSERT INTO assay_data (structure_as_smiles, measured_value) VALUES
  ('CCCCc1c(-c2ccc(OC)cc2)nc(N)nc1-c1ccc(OCc2ccccc2)cc1', '10.5%'),
  ('CCCCc1c(-c2ccccc2)nc(N)nc1-c1ccc(OCc2ccccc2)cc1C', '51.1%'),
  ('CCCCc1c(-c2ccccc2)nc(N)nc1-c1ccc(OCC)cc1', '26.3%'),
  ('CCCCc1c(-c2ccccc2)nc(N)nc1-c1ccc(OC(C)C)cc1', '12.3%'),
  ('CCCCc1c(-c2ccccc2)nc(N)nc1-c1cc(C)c(OCc2cccc(Cl)c2)c(C)c1', '6.5%'),
  ('CCCCc1c(-c2ccc(OCc3ccccc3)cc2)nc(N)nc1-c1cccc(OC)c1', '10%'),
  ('CCCCc1c(-c2ccc(Cl)cc2)nc(N)nc1-c1ccc(OCc2ccccc2)cc1', '4.1%'),
  ('CCCCc1c(-c2ccccc2)nc(N)nc1-c1cc(C)c(OCc2ccccc2Cl)c(C)c1', '7.1%');
